outcomeMeasure: melting point

Illustrative cases are given below, each with its answer.
compound	melting point
Cc1cc(-c2cccc(C(F)(F)F)c2)n2ncc(C(=O)c3ccccc3)c2n1	153 to 154 °C
O=C(Oc1ccccc1)C(=C1NCCCS1)[N+](=O)[O-]	100 to 102 °C
CC(C)C[C@H](NC(=O)OCc1ccccc1)C(=O)N[C@@H](Cc1ccccc1)C(=O)CSc1ccccc1	105 to 106 °C
CC1(c2ccc(-c3ccc(F)cc3)cc2)CC(=O)NN1 (stereo not given)	194 to 196 °C

# ---- query compound ----
Noted for CC(C)(C)c1cc(-c2cc(C(C)(C)C)cc(C(C)(C)C)c2O)c(O)c(C(C)(C)C)c1 : its melting point reads 190 to 195 °C

// provenance: a melting point compilation (Tetko et al.; mined from patent text by program, amines drawn as free bases though some values may be those of a salt)
